Origin of measurements: patent US5245051A

biological target: dopamine D2 receptor (Rattus norvegicus, UniProt P61169); construct: homogenized rat striatal brain tissue; from tissue; host or cells: rat striatal brain tissue homogenate; assay: Affinity for dopamine D2 receptor (3H-quinpirole, homogenized rat striatal brain tissue); assay type: binding
Sequence (P61169 whole entry): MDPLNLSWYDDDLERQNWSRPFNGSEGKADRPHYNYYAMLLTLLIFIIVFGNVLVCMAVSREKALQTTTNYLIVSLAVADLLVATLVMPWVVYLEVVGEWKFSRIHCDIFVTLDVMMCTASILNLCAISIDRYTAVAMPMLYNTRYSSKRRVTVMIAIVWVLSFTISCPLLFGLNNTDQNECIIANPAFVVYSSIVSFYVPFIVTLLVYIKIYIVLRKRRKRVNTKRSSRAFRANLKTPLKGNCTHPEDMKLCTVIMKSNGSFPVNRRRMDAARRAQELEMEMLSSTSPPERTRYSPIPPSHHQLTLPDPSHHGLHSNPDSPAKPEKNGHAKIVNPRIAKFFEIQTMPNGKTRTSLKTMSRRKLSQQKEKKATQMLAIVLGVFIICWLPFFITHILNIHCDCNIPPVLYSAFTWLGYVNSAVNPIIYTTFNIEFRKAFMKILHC
Provide the reported inhibition at 0.1 µM of each item.
In your response, put the unit directly after the numeric value.

Exam item: Provide dopamine D2 receptor (Rattus norvegicus, UniProt P61169) inhibition at 0.1 µM reading for O=c1ccoc2cc(OCCCNC[C@H]3COc4cc5c(cc4O3)OCO5)ccc12 .
Marked response: 73%

Exam item: Provide dopamine D2 receptor (Rattus norvegicus, UniProt P61169) inhibition at 0.1 µM reading for O=c1ccoc2cc(OCCCNCC3COc4cc5c(cc4O3)OCO5)ccc12 (stereo not drawn) .
Marked response: 65%

Exam item: Provide dopamine D2 receptor (Rattus norvegicus, UniProt P61169) inhibition at 0.1 µM reading for O=c1ccoc2cc(OCCCNCC3COc4ccc(O)cc4O3)ccc12 (stereo not drawn) .
Marked response: 100%
